Test: chemical recovery into PDMS from spiked human plasma; higher = better extraction
Settings: pooled human plasma; extraction method: PES with PDMS; equilibration time (d): 1
Mark Condition met for reported chemical recovery into PDMS of 20% or greater; mark Condition not met for anything smaller.

Field: example entries. Status: answers known.
>  <molecule>
Nc1ccc2c(n1)[nH]c1ccccc12 [2-Amino-9H-pyrido[2,3-b]indole (AalphaC)]

>  <assigned.class>
Condition not met

$$$$
>  <molecule>
O=P(OC(CCl)CCl)(OC(CCl)CCl)OC(CCl)CCl

>  <assigned.class>
Condition met

$$$$
>  <molecule>
CC(=O)O[C@]1(C(C)=O)CC[C@H]2[C@@H]3C[C@H](C)C4=CC(=O)CC[C@]4(C)[C@H]3CC[C@@]21C [Medroxyprogesteroneacetate]

>  <assigned.class>
Condition met

$$$$
>  <molecule>
Cc1cc(O)cc(C)c1[S+](C)[O-] (stereo not drawn) [Methiocarb-sulfoxide phenol]

>  <assigned.class>
Condition not met

$$$$

Pending molecule:
## Task Please indicate if the recorded chemical recovery into PDMS for "Nc1ccc(Cl)cc1" meets or exceeds 20%.
## Result Condition not met

---

Assay: chemical recovery into PDMS from spiked human plasma; higher = better extraction
Details: pooled human plasma; extraction method: PES with PDMS; equilibration time (d): 6
The reader will find reported chemical recovery into PDMS values listed item by item below.
Could you give the number and then its unit, please?

Example cases with answers are listed next.
>  <compound>
CC1C(C)(C)C2=C(C(=O)CCC2)C1(C)C (stereo not given) [Cashmeran]

>  <chemical recovery into PDMS>
17.8%

$$$$
>  <compound>
CCNc1nc(Cl)nc(NC(C)C)n1 [Atrazine]

>  <chemical recovery into PDMS>
39.4%

$$$$
>  <compound>
O=C(Nc1ccccc1-c1ccc(Cl)cc1)c1cccnc1Cl [Boscalid]

>  <chemical recovery into PDMS>
44.7%

$$$$

## Task Bench note: what chemical recovery into PDMS did CC(C)C1(C)N=C(c2ncccc2C(=O)O)NC1=O (stereo not given) [Imazapyr] show?
## Result 0.0849%

## Task Bench note: what chemical recovery into PDMS did CC(C)c1ccc2sc3ccccc3c(=O)c2c1 [2-Isopropylthioxanthone] show?
## Result 46.7%

## Task Bench note: what chemical recovery into PDMS did COc1ccc(C(=O)c2ccccc2)c(O)c1 [Benzophenone-3] show?
## Result 38.6%

---

Test: chemical recovery from spiked human plasma; higher = better extraction
Settings: pooled human plasma; extraction method: solvent precipitation (ACN + hexane)
property.name: chemical recovery (%)
Respond numerically; units are % and should not be typed.

Example cases with answers are listed next.
>  <compound>
O=C(NC1CCCCC1)NC1CCCCC1

>  <property.name>
chemical recovery

>  <numeric.value>
78.6

$$$$
>  <compound>
Cc1ccccc1NC(=N)Nc1ccccc1C

>  <property.name>
chemical recovery

>  <numeric.value>
64.5

$$$$
>  <compound>
CCNc1nc(NC(C)C)[nH]c(=O)n1 [2-Hydroxyatrazine]

>  <property.name>
chemical recovery

>  <numeric.value>
76.5

$$$$

With those in mind, consider the next compound.
## Task Bench note: what chemical recovery did "Nc1ccc(Cc2ccc(N)cc2)cc1" show?
## Result 31.9

---

Test: chemical recovery from spiked human plasma; higher = better extraction
Settings: pooled human plasma; extraction method: PES+SPE (3 d PDMS equilibration then HLB SPE)
The reader will find reported chemical recovery values listed item by item below.
Respond numerically; units are % and should not be typed.

## Task Bench note: what chemical recovery did "Clc1cccc(Cl)c1NC1=NCCN1" show?
## Result 28.5

## Task Bench note: what chemical recovery did "COC(=O)Nc1nc2cc(C(=O)c3ccccc3)ccc2[nH]1" show?
## Result 71.2

## Task Bench note: what chemical recovery did "CCNc1nc(N)nc(Cl)n1" show?
## Result 50.7

## Task Bench note: what chemical recovery did "CCCSc1ccc2[nH]c(NC(=O)OC)nc2c1" show?
## Result 3.61

## Task Bench note: what chemical recovery did CC(C)C1C2CCC1c1c(NC(=O)c3cn(C)nc3C(F)F)cccc12 (stereo not given) show?
## Result 56.7
